Assay: qHTS of Nrf2 Activators: Hit Validation in Primary Assay; also: nearly all actives have a fitted effect of over 70% in size
Conditions: Nrf2/ARE reporter cell assay; activation; series mostly up to 46.1 µM
About 860 (78%) of roughly 1,100 compounds were called active. Inconclusive results (about 19%) are left out. Calls follow the shape of the dose curve; as a rule, active = well fitted activation curve with a large enough effect; inconclusive = small, poorly fitted or top-dose-only effect; inactive = flat fitted curve, though single readings scatter. So high a share suggests a set chosen from earlier hits. Some of the results follow.
Just give me one of these, please: TRUE (active), FALSE (inactive)

Worked cases, answers included:
N#Cc1cnc2cc(-c3ccccc3)nn2c1N: TRUE
CN(C)c1oc(/C=C/c2ccccc2)nc1C#N: TRUE
CC(=O)N1CCc2c(sc(NC(=O)CCS(=O)(=O)c3ccccc3)c2C#N)C1: TRUE

q: Please let me know the test result on file for COc1ccccc1C=Cc1ccnc2ccccc12 .
a: TRUE

q: Could you please tell me the result logged for Clc1ccc2nc(-c3ccco3)c(Cc3ccccc3)n2c1 in this assay?
a: TRUE

q: Assay outcome for CC1(C)C(=O)OC(/C=C/c2cccc([N+](=O)[O-])c2)C(C)(C)C1=O (stereo not drawn) : what was it?
a: TRUE

q: State the result this test recorded for O=C1C(=Cc2ccccc2[N+](=O)[O-])Cc2ccccc21 .
a: TRUE

q: What is the recorded call for this compound in the test? O=C(Nc1ccccc1C(=O)NCCc1ccccc1)c1ccco1
a: TRUE

q: # lookup: test call for O=C(Nc1ccccc1F)c1cc(-c2ccco2)nc2ccccc12
a: TRUE

q: Call for entry COC(=O)c1c(NC(=O)c2ccco2)sc(C)c1C :
a: TRUE

q: Entry COn1c(=O)c(-c2cccc(Br)c2)[n+]([O-])c2ccccc21 : call = ?
a: TRUE

q: So what was the verdict on Cc1cccc2cc3c(nc12)-c1ccccc1C3=O in this test?
a: TRUE

q: Query: recorded result category for c1ccc(-c2cnc(-c3ccccc3)nn2)cc1 in this test
a: TRUE

q: Look up the recorded call for CSc1nsc(SC)c1NC(=O)Nc1ccccn1 in this test.
a: TRUE

q: Assay result, entry CCc1c(C)sc(NC(=O)c2ccco2)c1C#N — outcome?
a: TRUE

q: Which outcome was entered for the compound Nc1c(C(=O)Nc2ccccc2Br)sc2nc(-c3cccs3)ccc12 in this test?
a: TRUE

q: Recorded test call requested for O=C(/C=C/c1ccccc1)Nc1nc(-c2cccs2)ns1
a: TRUE

q: Tell me the recorded outcome of this test for Oc1ccccc1-n1nc2ccc3nonc3c2n1 .
a: TRUE

q: Hi, do you know how O=C(NCC1CCCO1)c1ccc([N+](=O)[O-])o1 (stereo not drawn) came out in this test?
a: TRUE

q: State the result this test recorded for O=C(Nc1cccc(F)c1)c1cc(-c2ccco2)nc2ccccc12 .
a: TRUE

====

Experiment: qHTS of Nrf2 Activators: Hit Validation in Primary Assay; also: nearly all actives have a fitted effect of over 70% in size
Conditions: Nrf2/ARE reporter cell assay; activation; series mostly up to 46.1 µM
Hit rate of the full screen: of about 1,100 compounds, about 860 (78%) were called active. Not shown: some 19% with an inconclusive outcome. The call rests on the fitted dose curve; in most records, active means well fitted activation curve with a large enough effect; inconclusive means small, poorly fitted or top-dose-only effect; inactive means flat fitted curve, though single readings scatter. So high a share suggests a set chosen from earlier hits. The list shows a part of the results.
Result category, one only: active, inactive

Previously resolved entries follow.
O=C(c1ccco1)c1cn(CC(=O)N2CCCc3ccccc32)c2ccccc12: inactive
O=c1c2ccccc2oc2ccc(-c3ccc4cc[nH]c4c3)cc12: active
O=[N+]([O-])c1cccc(/C=C/c2ccccn2)c1: active
O=c1cc(/C=C/c2ccccc2)oc2ccccc12: active
O=[N+]([O-])c1cccc(-c2nnc(-c3ccccc3)o2)c1: active

q: Field: outcome | Entry: O=C(Nc1ncc2c(n1)-c1ccccc1CC2)c1ccccc1
a: active

q: How did this test come out for CNC(=O)c1ccsc1NC(=O)c1ccc(Cl)s1 ?
a: active

q: // outcome(item) with item = Cc1ccc(S(=O)(=O)c2nc(S(C)(=O)=O)sc2N2CCC(O)CC2)cc1
a: active

q: GET /call?item= CC1CCN(CC2C(=O)O[C@@H]3C[C@@]4(C)CCC[C@H](C)C4=C[C@H]23)CC(C)(C)C1 (some centres undefined) returns the recorded outcome of this test.
a: active

q: Hi, do you know how O=C(Nc1nccc(-c2cccs2)n1)c1cccs1 came out in this test?
a: active

q: Lab log entry: COc1ccc2oc3cc(Cl)ccc3c(=O)c2c1 — outcome as called in the assay?
a: active

q: Assay outcome for [O-][n+]1onc2c1CCc1c-2nn(-c2ccccc2Cl)[n+]1[O-] : what was it?
a: active

q: Would you mind telling me which call this test gave O=C(c1ccco1)c1cc2c(ccc3ccccc32)oc1=O ?
a: active

q: For O=C(NCCc1c[nH]c2ccccc12)c1ccc([N+](=O)[O-])o1 , which call appears in the assay record?
a: active

q: Answer briefly: the call reported for Fc1ccc2cc(-c3ccsc3)ncc2c1 in this assay.
a: active

q: So what was the verdict on Oc1ccccc1C=NN=Cc1c(O)ccc2ccccc12 in this test?
a: active

q: Assay result, entry O=[N+]([O-])c1cccc(-c2cn(-c3ccccc3)c(=S)[nH]2)c1 — outcome?
a: inactive

q: What was the test verdict on N#C/C(=C\c1ccccc1)c1ccccn1 ?
a: active

q: State the result this test recorded for COC(=O)c1sc(NC(=O)c2ccco2)nc1C .
a: active

Data origin: PubChem BioAssay AID651593
